# Test system: PC-3 prostate
# EXPERIMENTAL_PROTOCOL: NCI tumour cell line growth inhibition, 48 h
ENDPOINT_NAME: TGI

Report TGI for Nc1ccc2c(c1)CN1C(=O)c3ccccc3C1=N2 tested on PC-3 prostate.
> 125 µM

Notebook entry, PC-3 prostate assay: TGI of COCCCN1C(=O)C2c3[nH]c4ccccc4c3C3CCC(C(C)(C)C)CC3C2C1=O (stereo unspecified) = ?
50.8 µM

GET /values?readout=TGI&system=PC-3 prostate&item= OCCCCC#Cc1ccccc1C#Cc1cnccn1
> 100 µM

What TGI appears in the records for this compound with PC-3 prostate? CCCCCCCCCCCCNC(=O)[C@H]1CSC(c2ccc(OC)c(F)c2)N1 (stereo partly specified)
1.43 µM

So what TGI did CCNC(=O)Oc1ccc(/C(=C(\C)c2ccc(Cl)cc2)c2ccc(OCCN3CCCCC3)cc2)cc1 get with PC-3 prostate?
11.3 µM

Observed TGI on PC-3 prostate for Cc1cc(S(=O)(=O)NC(=NCC(=O)NN)NN)c(S)cc1Cl , please.
> 10 µM

###

# Tested on: ACHN renal
# EXPERIMENTAL_PROTOCOL: NCI tumour cell line growth inhibition, 48 h
Assign TGI to each entry below.

Find TGI (ACHN renal) for the entry CCCCCCN(CCCCCC)CC(O)c1cccc2ccc(Cl)cc12 (stereo not given)
18.8 µM

Item: CCc1nc(N)nc(N)c1-c1ccc([N+](=O)[O-])c(Cl)c1 Test system: ACHN renal Read-out: TGI Value: ?
> 100 µM

Observed TGI on ACHN renal for COc1ccc(N=C2NN=C(c3c[nH]c4ccccc34)CS2)cc1OC , please.
> 100 µM

What measured TGI is associated with COc1ccc(S(=O)(=O)Nc2ccc(-c3csc(N4C(=O)/C(=C/C=C\c5ccccc5)N=C4c4ccccc4)n3)cc2)cc1Cl on ACHN renal?
> 100 µM

Entry CCN(CC)CCOc1ccc(C2=C(c3ccccc3)CCc3cc(OC)ccc32)cc1 , system ACHN renal: what TGI was measured?
15.4 µM

Lab request: please report TGI under test system ACHN renal for CCOC(=O)Cc1nc2c(=O)[nH]cnc2n1C1OC(COC(C)=O)C(OC(C)=O)C1OC(C)=O (stereo not given)
> 100 µM

Give ACHN renal TGI for O=C(CCCN1CCc2[nH]c3cc(F)ccc3c2C1)c1ccc(F)cc1
26.8 µM

Recorded TGI for Cc1c(-c2coc(-c3ccc(Cl)cc3)n2)c(=O)n(-c2ccccc2)n1C with ACHN renal, please?
> 100 µM

Observed TGI on ACHN renal for COc1cccc(N2N=C3c4ccccc4-n4c(nc5ccccc54)C3C2N)c1 (stereo not given) , please.
> 100 µM

Kindly state the measured TGI obtained for Nc1ccc2c(c1)CN1C(=O)c3ccccc3C1=N2 with ACHN renal.
> 125 µM

###

# Test system: HS 578T breast
# EXPERIMENTAL_PROTOCOL: NCI tumour cell line growth inhibition, 48 h
Where a SMILES comes first, the peptide text is derived from it. The star is where a group is joined. Palmitoyl = CCCCCCCCCCCCCCCC(=O)*
ENDPOINT_NAME: GI50

Query: GI50; subject: CCCCCCCCCCCCCCCC(=O)NC(CCCCN)C(=O)NCC(=O)NC(Cc1ccccc1)C(=O)N1CCCC1C(=O)NC(CO)C(=O)NC(Cc1ccc(O)cc1)C(=O)NC(CCCCN)C(=O)NC(CC(C)C)C(=O)NC(CCCN=C(N)N)C(=O)N1CCCC1C(=O)NCC(N)=O (centres undefined) (Palmitoyl-KGFPSYKLRPG-NH2; configuration not given here)
31.2 µM

Quick check: GI50 of CCNC(=O)Oc1ccc(/C(=C(\C)c2ccc(Cl)cc2)c2ccc(OCCN3CCCCC3)cc2)cc1 ?
3.62 µM

What GI50 value was documented for this compound, Cc1csc(Nc2nc(-c3cccc(Cl)c3)nc(C(Cl)(Cl)Cl)n2)n1 ?
1.79 µM

What measured GI50 goes with CC1SC2(CCCCC2)N(NC(=O)c2[nH]c3ccc(F)cc3c2-c2ccccc2)C1=O (centres undefined) ?
66.8 µM

GET /values?readout=GI50&item= CC[C@@]1(OC(=O)CN(C)C)C(=O)OCc2c1cc1n(c2=O)Cc2cc3ccccc3nc2-1
3.53 µM

Requested read-out: GI50. Entry: C=CC[PH+](c1ccccc1)c1ccccc1.C=CC[PH+](c1ccccc1)c1ccccc1.[Cl][Pt][Cl]
13.4 µM

// query GI50 value for entry COc1ccc(N=C2NN=C(c3c[nH]c4ccccc34)CS2)cc1OC
5.38 µM

Entry O=C(NO)C(O)C(O)C(O)C(O)CO (centres undefined) has what GI50?
> 100 µM

Entry N#Cc1ccc(N2Cc3cc(Cl)ccc3OC3=C2C(=O)N(Cc2ccccc2)C3=O)cc1 has what GI50?
2.62 µM

###

Exercise: state measured TGI for each of the compounds provided.
# System: RPMI-8226 leukemia
# EXPERIMENTAL_PROTOCOL: NCI tumour cell line growth inhibition, 48 h

I'd like to know its TGI. The compound in question is O=C(CN=Cc1cccs1)CSC(c1ccccc1)c1ccccc1
28.7 µM

Look up TGI for this compound: C/C(=N/Nc1ccc([N+](=O)[O-])cc1[N+](=O)[O-])C(CC(C(=O)Nc1ccccc1C)/C(C)=N\Nc1ccc([N+](=O)[O-])cc1[N+](=O)[O-])C(=O)Nc1ccccc1C (stereo not given)
> 69.3 µM

Please look up its TGI: O=[N+]([O-])c1cccc(-c2ncc(-c3ccc(Cl)cc3Cl)[nH]2)c1
4.68 µM

Consider the compound O=C(NCCCCl)c1c(O)c2ccccc2[nH]c1=O and give its measured TGI.
> 100 µM

Entry under review: CCC1(N2C(=O)c3c(F)c(F)c(F)c(F)c3C2=O)C(=O)NC(=O)N(c2ccccc2)C1=O (stereo not given) . Reported TGI?
2.58 µM

###

# Tested on: NCI/ADR-RES ovarian
# EXPERIMENTAL_PROTOCOL: NCI tumour cell line growth inhibition, 48 h
Where a SMILES comes first, the peptide text is derived from it. The star is where a group is joined. Palmitoyl = CCCCCCCCCCCCCCCC(=O)*
Consider the following partition of reported TGI into named classes: bottom range: < 20 µM; center range: ≥ 20 µM and < 30 µM; top range: ≥ 30 µM

Using the reported TGI, which band applies to C[C@@H](C[C@@H](O)[C@H](O)C(C)(C)O)[C@H]1CC=C2[C@]3(C)[C@H](O)C[C@H]4C(C)(C)[C@H](O)CC[C@]4(C)[C@H]3CC[C@@]21C ?
center range

Band assignment needed for COC(=O)Nc1nc2ccc(Sc3ccc(NC(=O)Nc4cc(C(F)(F)F)ccc4F)cc3)cc2[nH]1 please.
bottom range

Class for Cc1cnc2[nH]c(-c3ccccc3)cc(=O)c2c1 ?
bottom range

Sort O=C(O)c1ccc(Nc2cnc3ccc(C(F)(F)F)cc3n2)cc1 into one of the categories.
top range

Using the reported TGI, which band applies to CN(Cc1nc2c(N)nc(N)nc2nc1N)c1ccc(C(=O)NC(CCC(=O)O)C(=O)O)cc1 (stereo not drawn) ?
top range

Quick check: band for C=C(CCC(C(=O)O)C1CCC2(C)C3=C(CCC12C)C1(C)CCC(O)C(C)(C)C1CC3)C(C)C (stereo not drawn)
top range

Sort CC(C)[Si]1(C(C)C)OCC2OC(n3cnc4c(N)ncnc43)C(N)C2O[Si](C(C)C)(C(C)C)O1 (stereo not drawn) into one of the categories.
center range

Please indicate the class for COc1cc(C(=O)N/N=C/c2cccc([N+](=O)[O-])c2)cc(OC)c1OC based on its TGI.
top range

Each compound maps to one class by TGI. Which class for CC(=O)c1nccc2c1c(C)nc1ccccc12 ?
top range

Please classify: C=C(C)[C@@H]1CCC[C@]2(C(=O)O)CC[C@]3(C)[C@@H](CC[C@@H]4[C@@]5(C)C/C(=C/c6ccncc6)C(=O)C(C)(C)[C@@H]5CC[C@]43C)[C@@H]12
top range

Using the reported TGI, which band applies to COc1cc2c(cc1OC)[C@H]1C(=O)c3cc4c(cc3[C@H]1N(C)C2=O)OCO4 ?
top range

For CCNC(=O)Oc1ccc(/C(=C(\C)c2ccc(Cl)cc2)c2ccc(OCCN3CCCCC3)cc2)cc1 , which TGI bin applies?
center range

Could you tell me which band CCCCCCCCCCCCCCCC(=O)NC(CCCCN)C(=O)NCC(=O)NC(Cc1ccccc1)C(=O)N1CCCC1C(=O)NC(CO)C(=O)NC(Cc1ccc(O)cc1)C(=O)NC(CCCCN)C(=O)NC(CC(C)C)C(=O)NC(CCCN=C(N)N)C(=O)N1CCCC1C(=O)NCC(N)=O (stereo not drawn) (Palmitoyl-KGFPSYKLRPG-NH2; configuration not given here) belongs to?
top range

Hello team, could you let me know which band the following compound falls into: Cn1cc(-c2nn3cc(-c4cccs4)nc3s2)c2cc(F)ccc21
bottom range

Determine which band this compound sits in: COc1ccc(NC(=O)C2=C(SC)C(=O)N=C2N)cc1
top range
